- Test system: Bacillus cereus
- experimental protocol: Bactericidal activity against Bacillus cereus incubated for 24 hrs followed by serial sub-cultivation and measured after 24 hrs by microdilution method
- Format: functional
outcome measure: MBC99.5 (×10⁻² umol/ml)
Return type: number; implicit unit ×10⁻² umol/ml.

Asked: Which MBC99.5 is reported with Bacillus cereus for this entry: O=C(NN1C(=O)CSC1c1cccc(F)c1)c1nsc2ccccc12 (centres undefined) ?
Given back: 40.2

Asked: What would you report for O=C(Cc1nsc2ccccc12)NN1C(=O)CSC1c1c(F)cccc1F (centres undefined) ?
Given back: 37

Asked: What would you report for `O=C(Cc1nsc2ccccc12)N/N=C/c1c(F)cccc1Cl` ?
Given back: 48.2

Asked: What would you report for `O=C(N/N=C/c1c(Cl)cccc1Cl)c1nsc2ccccc12` ?
Given back: 23.2

Asked: What would you report for O=C(NN1C(=O)CSC1c1ccccc1F)c1nsc2ccccc12 (centres undefined) ?
Given back: 40.2

Asked: What would you report for O=C(NN1C(=O)CSC1c1cccc(Cl)c1)c1nsc2ccccc12 (centres undefined) ?
Given back: 38.4

Asked: What would you report for O=C(Cc1nsc2ccccc12)NN1C(=O)CSC1c1ccc(Cl)cc1 (centres undefined) ?
Given back: 19.8

Asked: What would you report for O=C(Cc1nsc2ccccc12)NN1C(=O)CSC1c1cccc(Cl)c1 (centres undefined) ?
Given back: 37.2

Asked: What would you report for `O=C(Cc1nsc2ccccc12)N/N=C/c1c(F)cccc1F` ?
Given back: 23.2

Asked: What would you report for `O=C(N/N=C/c1c(F)cccc1Cl)c1nsc2ccccc12` ?
Given back: 24

Asked: What would you report for O=C(NN1C(=O)CSC1c1c(F)cccc1F)c1nsc2ccccc12 (centres undefined) ?
Given back: 20.4

Asked: What would you report for `CC1(C)S[C@@H]2[C@H](NC(=O)[C@H](N)c3ccccc3)C(=O)N2[C@H]1C(=O)O` ?
Given back: 37.2

Asked: What would you report for O=C(NN1C(=O)CSC1c1ccccc1)c1nsc2ccccc12 (centres undefined) ?
Given back: 42.2

Asked: What would you report for O=C(Cc1nsc2ccccc12)NN1C(=O)CSC1c1ccccc1 (centres undefined) ?
Given back: 40.5

* * *

Please provide measured MFC99.5 for the entries that follow.
- Test system: Aspergillus niger
- experimental protocol: Fungicidal activity against Aspergillus niger ATCC 6275 incubated for 72 hrs followed by serial sub-cultivation for 72 hrs and measured after 72 hrs by serial dilution method
- Assay type: functional
Quick note: number first, unit second.

Asked: Which MFC99.5 is reported with Aspergillus niger for this entry: O=C(NN1C(=O)CSC1c1ccccc1F)c1nsc2ccccc12 (stereo unspecified) ?
Given back: 21.4 ×10⁻² umol/ml

Asked: What would you report for O=C(NN1C(=O)CSC1c1cccc(Cl)c1)c1nsc2ccccc12 (stereo unspecified) ?
Given back: 10.2 ×10⁻² umol/ml

Asked: What would you report for O=C(Cc1nsc2ccccc12)NN1C(=O)CSC1c1ccccc1 (stereo unspecified) ?
Given back: 21.6 ×10⁻² umol/ml

Asked: What would you report for O=C(NN1C(=O)CSC1c1ccccc1Cl)c1nsc2ccccc12 (stereo unspecified) ?
Given back: 20.5 ×10⁻² umol/ml

Asked: What would you report for O=C(Cc1nsc2ccccc12)NN1C(=O)CSC1c1ccccc1Cl (stereo unspecified) ?
Given back: 19.8 ×10⁻² umol/ml

Asked: What would you report for c1ccc(-c2ccc(C(c3ccccc3)n3ccnc3)cc2)cc1 (stereo unspecified) ?
Given back: 64 ×10⁻² umol/ml

Asked: What would you report for O=C(Cc1nsc2ccccc12)NN1C(=O)CSC1c1c(F)cccc1F (stereo unspecified) ?
Given back: 19.8 ×10⁻² umol/ml

Asked: What would you report for `O=C(Cc1nsc2ccccc12)N/N=C/c1c(F)cccc1Cl` ?
Given back: 23.2 ×10⁻² umol/ml

Asked: What would you report for O=C(NN1C(=O)CSC1c1ccc(Cl)cc1)c1nsc2ccccc12 (stereo unspecified) ?
Given back: 20.5 ×10⁻² umol/ml

Asked: What would you report for O=C(NN1C(=O)CSC1c1ccccc1)c1nsc2ccccc12 (stereo unspecified) ?
Given back: 22.5 ×10⁻² umol/ml

Asked: What would you report for `O=C(N/N=C/c1c(Cl)cccc1Cl)c1nsc2ccccc12` ?
Given back: 58 ×10⁻² umol/ml
